Consider the following binders and their measured % max inhibition of shedding readings.
- measurement target: T1, MICA*008 on MEL-JUSO cells (human, UniProt Q29983 24-317)
- T1 chain: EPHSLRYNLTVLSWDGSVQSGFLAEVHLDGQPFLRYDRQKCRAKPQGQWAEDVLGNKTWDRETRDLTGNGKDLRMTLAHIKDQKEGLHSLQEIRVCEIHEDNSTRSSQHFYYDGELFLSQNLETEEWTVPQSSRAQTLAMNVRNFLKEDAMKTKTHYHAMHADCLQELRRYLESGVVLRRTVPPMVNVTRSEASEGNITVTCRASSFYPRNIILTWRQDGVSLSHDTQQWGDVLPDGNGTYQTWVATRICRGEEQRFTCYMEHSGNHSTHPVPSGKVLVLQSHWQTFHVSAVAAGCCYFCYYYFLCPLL
- assay name: cell-based or functional assay
Use % as the unit, but write only the number.

Consider the reported % max inhibition of shedding for these binders:
| binder | % max inhibition of shedding / % |
| --- | --- |
| 12H10 (antibody, V domains shown, Mouse variable domains; constant regions differ by assay) VH: DVQLQESGPGLVKPSQPLSLTCTVTGYSITSNYAWNWIRQFPGDKLEWMGYISSSGITKSNPSLKSRISITRDTSKNQFFLQLNSLTTEDTATYYCSRWSNWSFDVWGAGTTVTVSS VL: DIQMTQTPSSLSVSLGDRVTINCRASQDIHNYFNWYQQKPDGTIKLLIYYTSRFHSGVPSRFSGSGSGTDYSLTISNLEEEDIATYFCQQGNSLPPTFGGGTKLEIK | 81 |
| 6E12.5 (antibody, V domains shown, Mouse hybridoma antibody; constant regions differ by assay) VH: EVQLVESGGGLVKPGGSLKLSCAASGFTFSDYYMYWVRQTPEKRLEWVATISDGITYTYYSDSVRGRFTISRDNAENTLYLQMSSLKSEDTAMYYCSKGGGSTARGALDFWGQGTSVTVSS VL: DIQMNQSPSSLSASLGDTITITCHASQNIHVWLSWYQQKPGNIPKLLIYGASHLHTGVPSRFSGRGSGTGFTLTISSLQPEDIATYYCLQGQSYPLTFGSGTKVEIK | 28 |
| 18G3 (antibody, V domains shown, Mouse variable domains; constant regions differ by assay) VH: VQLQESGPGLVKPSQSLSLTCNVTGYSITGDYAWNWIRQFPGNKLEWIGYIGYTGSTTYNPSLKSRVSITRDTSKNQFFLQLNSVTPEDTATYYCARWRNWAMDYWGLGTSVTVSS VL: DIQMTQTPSSLSASLGDRVTISCRANQDISHYLNWYQQKPDGAVKLLIYYTSRIHSGVPSRFSGSGSGTDYSLTIANLEQEDVATYFCQQGNTPPTTFGGGTKVEIK | 75 |

Query: Give the measured % max inhibition of shedding of 1E6.1.3 (antibody, V domains shown, Mouse hybridoma antibody; constant regions differ by assay) VH: QVQLKESGPGLVAPSQSLSITCTVSGFSLTGSGVNWVRQPPGQGLEWLGMIWGDGNTDYNSALKSRLSISKDNSKSQVFLKMNSLQTDDTARYYCARGAHYGKRWYFDVWGAGTTVTVSS VL: DIQMTQTTFSLSASLGDRVTISCSASQGINNYLNWYQQRPDGTVKLLIYYTSTLPSGVPSRFSGSGSGTDYSLTISNLEPEDIASYYCQQYSKLPPTFGGGTKVEIK .
Reply: 20

Query: Give the measured % max inhibition of shedding of 7D4.6 (antibody, V domains shown, Mouse hybridoma antibody; constant regions differ by assay) VH: DVQLQESGPGLVKPSQSLSLTCTVTGYSITSDYAWNWIRQFPRNKLEWMGYINYSGTTNYNPSLKSRISITRDTSKNQFFLQLISVTTEDTATYYCSYYRYDGAWFPYWGQGTLVTVSA VL: DIQMTQSPASLSASVGETVTITCRASGNIHNYLAWYQQKQGKSPQLLVYNAIMLADGVPSRFSASGSGTQYSLKINSLQPEDFGSYYCQHFWSFPLTFGAGTKVEIK .
Reply: 26

Query: Give the measured % max inhibition of shedding of 20G11 (antibody, V domains shown, Mouse hybridoma antibody; constant regions differ by assay) VH: DVQLVESGGGLVQPGGSRKLSCAASGFTFSTFGIHWVRQAPEKGLEWVAYISYDSRTIYYADTVKGRFTISRDNPKNTLFLQMTSLRSEDTAMYYCARWAYEGGVNYFDNWGQGTTLTVSS VL: QIVLTQSPAIMSASLGERVTMTCTATSGVSSSYLHWYQQKPGSSPKLWIYSSSNLASGVPARFSGSGSGTSYSLTIGSMEAEDAATYYCHQFHRSPLTFGTGTKVEIK .
Reply: 70

Query: Give the measured % max inhibition of shedding of 1D5 (antibody, V domains shown, Mouse variable domains; constant regions differ by assay (human IgG1 or mouse IgG2a); also called anti-MIC 1D5) VH: EIQLQQSGPELVKPGASVKVSCKASGYAFTSQNIYWVKQSHGKSLEWIGYIEPYNVVPMYNPKFKGKATLTVDKSSSSAYIHLNSLTSEDSAIYYCARSGSSNFDYWGQGTTLTVSS VL: EIILTQSPTTMAASPGEKITITCSASSSISSHYLHWYQQKSGFSPKLLIYRTSNLASGVPARFSGSGSGTSYSLTIGTMEAEDVATYYCQQGSSLPLTFGAGTKVEIK .
Reply: 77

Query: Give the measured % max inhibition of shedding of 13A9 (antibody, V domains shown, Mouse variable domains; constant regions differ by assay) VH: QVQLQQSGAELVRPGTSVKVSCKASGYAFTNYLIEWVKQRPGQGLEWIGAINPGSGATNYNEKFKDKARLTADKSSNTAYLQFSSLTSDDSAVYFCARFLGNYFDNWGQGATLTVSS VL: DIQMTQSPASLSASVGETVTITCRASGNIHSYLAWYQQKQGKSPQLLVYYAETLADGVPSRFSGRGSGTQYSLKINSLQPEDFGSYFCQQFWTTPYTFGGGTKVEIK .
Reply: 47

Query: Give the measured % max inhibition of shedding of 3E11 (antibody, V domains shown, Mouse hybridoma antibody; constant regions differ by assay) VH: EIQLQQSGPELVKPGASVKVSCTASGYAFTKYNIYWVKQSHGKSLEWIGYIDPYTGGTISNQKFTGRATLTVDKSSSTAYLHLNSLTSEDSAVYYCARPGSYWYFGVWGAGTTVTVSS VL: DILMTQTPLSLPVSLGDQASISCRSSQSIVYTNGNTNLEWYLQKPGQSPKLLIYKVSNRFSGVPDRFSGSGSGTDFTLKISRVEAEDLGVYYCFQASYVPFTFGSGTKVEIK .
Reply: 70

Hey, just so you know, these numbers are from patent US20200055939A1.
